- Test system: lipase of SEQ ID NO: 2
- Method summary: Effect of inhibitors on lipase activity
- Type: biochemical, Thermoanaerobacter thermohydrosulfuricus
- Cond: up to 10 mM
Structures can show the parent of a compound that is named as a salt.
Property name: effect on the activity of the lipase

The examples below pair each entry with its known result.
Compound | effect on the activity of the lipase
NC(N)=O | little effect
O[C@@H](CS)[C@@H](O)CS | little effect
OCCS | little effect
O=C(O)CI [iodo-acetate] | little effect
N=C(N)N [guanidine hydrochloride] | little effect

# input for lookup
Short answer for O=C(O)c1cc[c]([Hg][OH])cc1 : effect on the activity of the lipase was little effect

###

Kindly supply the reported Relative activity values for the records listed here.
- Test system: lipase of SEQ ID NO: 2
- Method summary: Substrate specificity for pNP-esters
- Format: biochemical, Thermoanaerobacter thermohydrosulfuricus
- Cond: pNP-ester 1 mM, pH 8.0, 10 min at 70° C.
Numbers only.

The examples below pair each entry with its known result.
Compound | Relative activity
CC(=O)Oc1ccc([N+](=O)[O-])cc1 [pNP-acetate, pNP-acetate (C2:0)] | 9
CCCCCC(=O)Oc1ccc([N+](=O)[O-])cc1 [pNP-caproate, pNP-caproate (C6:0)] | 81
CCCC(=O)Oc1ccc([N+](=O)[O-])cc1 [pNP-butyrate, pNP-butyrate (C4:0)] | 57

# input for lookup
Short answer for CCCCCCCCCCCCCCCC(=O)Oc1ccc([N+](=O)[O-])cc1 [pNP-palmitate, pNP-palmitate (C16:0)] : Relative activity was 32
